- MEASURED_TARGET: FGFR2 (human) (UniProt P21802)
- Sequence (P21802 whole entry, looked up): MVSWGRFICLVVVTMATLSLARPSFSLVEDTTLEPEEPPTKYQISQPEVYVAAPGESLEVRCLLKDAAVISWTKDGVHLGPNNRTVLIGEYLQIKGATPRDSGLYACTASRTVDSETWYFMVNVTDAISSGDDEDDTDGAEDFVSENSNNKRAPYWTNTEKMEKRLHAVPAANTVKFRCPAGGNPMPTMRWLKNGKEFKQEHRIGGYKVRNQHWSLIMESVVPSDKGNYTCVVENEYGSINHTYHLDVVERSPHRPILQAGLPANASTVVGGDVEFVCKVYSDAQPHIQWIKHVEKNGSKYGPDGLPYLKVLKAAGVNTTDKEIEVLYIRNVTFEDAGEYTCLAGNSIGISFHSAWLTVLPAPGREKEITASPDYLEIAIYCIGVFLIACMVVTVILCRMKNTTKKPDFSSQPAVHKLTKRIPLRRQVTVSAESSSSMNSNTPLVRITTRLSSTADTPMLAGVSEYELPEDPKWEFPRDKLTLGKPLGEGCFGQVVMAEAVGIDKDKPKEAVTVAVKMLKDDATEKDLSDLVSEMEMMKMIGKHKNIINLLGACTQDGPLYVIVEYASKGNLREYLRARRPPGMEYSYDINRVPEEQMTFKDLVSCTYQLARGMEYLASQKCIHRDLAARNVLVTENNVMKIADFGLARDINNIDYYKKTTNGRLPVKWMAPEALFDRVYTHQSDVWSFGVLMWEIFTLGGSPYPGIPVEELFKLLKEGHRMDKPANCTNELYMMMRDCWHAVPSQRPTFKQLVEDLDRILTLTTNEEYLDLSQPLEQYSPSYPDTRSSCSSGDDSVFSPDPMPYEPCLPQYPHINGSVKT
- ASSAY_PROTOCOL: radiometric filter-binding kinase assay, Kinase HotSpot
- CONDITION_CONTEXT: compound 0.5 µM; ATP 10 µM
ENDPOINT_NAME: residual activity (%)

O=C1Nc2ccccc2/C1=C1/Nc2ccccc2/C1=N\OCCC(O)CO (stereo unspecified) ... 76
CC(=O)O/N=C1\C(=C2\C(=O)Nc3cc(Br)ccc32)Nc2ccccc21 ... 85.8
O=C1Nc2ccccc2/C1=C1\Nc2ccccc2\C1=N/O ... 92.1
CN(C)C[C@H]1CCn2c(c(C3=C(c4cn(C)c5ccccc45)C(=O)NC3=O)c3ccccc32)C1 ... 104
Nc1nccc(-c2c(-c3ccc(F)cc3)ncn2C2CCNCC2)n1 ... 104
Oc1ccc(Nc2nc(-c3ccc(Cl)cc3)cs2)cc1 ... 104
COc1ccc(CNC(=O)Nc2ncc([N+](=O)[O-])s2)cc1 ... 97.4
CC(C)[C@H](CO)Nc1nc(Nc2cc(N)cc(Cl)c2)c2ncn(C(C)C)c2n1 ... 97.3
O=C(O)/C=C/c1cc(Br)c(Br)c(Br)c1Br ... 99.5
O=C(Nc1cccc(Nc2cc(Nc3cccc(C(F)(F)F)c3)ncn2)c1)C1CC1 ... 105
O=C1NC(=O)C(c2c[nH]c3ccccc23)=C1c1c[nH]c2ccccc12 ... 89.4

====

- MEASURED_TARGET: HIPK2 (human)
- ASSAY_PROTOCOL: radiometric filter-binding kinase assay, Kinase HotSpot
- CONDITION_CONTEXT: compound 0.5 µM; ATP 10 µM
ENDPOINT_NAME: residual activity (%)

O=C1NC(=O)C(c2c[nH]c3ccccc23)=C1c1c[nH]c2ccccc12 ... 104
CCN(CC)CCCCN1c2ccccc2Oc2ccc(Cl)cc21 ... 118
CC(C)c1nn(-c2c(Cl)cccc2Cl)c2nc(Cc3ccc(OCCO)cc3)nc(O)c12 ... 104
COc1ccc(OC)c2c(=S)c3ccccc3[nH]c12 ... 98.3
O=C1NC(=O)/C(=C\c2ccc3nccnc3c2)S1 ... 101
COc1ccc(CNC(=O)Nc2ncc([N+](=O)[O-])s2)cc1 ... 103

====

- MEASURED_TARGET: NEK7 (human)
- ASSAY_PROTOCOL: radiometric filter-binding kinase assay, Kinase HotSpot
- CONDITION_CONTEXT: compound 0.5 µM; ATP 10 µM
# maps each entry to its residual activity
ENDPOINT_NAME: residual activity (%)

O=C1Nc2ccccc2/C1=C1\Nc2ccccc2\C1=N/O ... 106
CC(C)[C@H](CO)Nc1nc(Nc2cc(N)cc(Cl)c2)c2ncn(C(C)C)c2n1 ... 89
Nc1nnc2[nH]c3ccccc3nc1-2 ... 93.1
Nc1nccc(-c2c(-c3ccc(F)cc3)ncn2C2CCNCC2)n1 ... 98.9
CCN(CC)CCCCN1c2ccccc2Oc2ccc(Cl)cc21 ... 89.7
COc1ccc(OC)c2c(=S)c3ccccc3[nH]c12 ... 97.2

====

- MEASURED_TARGET: UniProt Q9Y5S2
- Sequence (Q9Y5S2 whole entry, looked up): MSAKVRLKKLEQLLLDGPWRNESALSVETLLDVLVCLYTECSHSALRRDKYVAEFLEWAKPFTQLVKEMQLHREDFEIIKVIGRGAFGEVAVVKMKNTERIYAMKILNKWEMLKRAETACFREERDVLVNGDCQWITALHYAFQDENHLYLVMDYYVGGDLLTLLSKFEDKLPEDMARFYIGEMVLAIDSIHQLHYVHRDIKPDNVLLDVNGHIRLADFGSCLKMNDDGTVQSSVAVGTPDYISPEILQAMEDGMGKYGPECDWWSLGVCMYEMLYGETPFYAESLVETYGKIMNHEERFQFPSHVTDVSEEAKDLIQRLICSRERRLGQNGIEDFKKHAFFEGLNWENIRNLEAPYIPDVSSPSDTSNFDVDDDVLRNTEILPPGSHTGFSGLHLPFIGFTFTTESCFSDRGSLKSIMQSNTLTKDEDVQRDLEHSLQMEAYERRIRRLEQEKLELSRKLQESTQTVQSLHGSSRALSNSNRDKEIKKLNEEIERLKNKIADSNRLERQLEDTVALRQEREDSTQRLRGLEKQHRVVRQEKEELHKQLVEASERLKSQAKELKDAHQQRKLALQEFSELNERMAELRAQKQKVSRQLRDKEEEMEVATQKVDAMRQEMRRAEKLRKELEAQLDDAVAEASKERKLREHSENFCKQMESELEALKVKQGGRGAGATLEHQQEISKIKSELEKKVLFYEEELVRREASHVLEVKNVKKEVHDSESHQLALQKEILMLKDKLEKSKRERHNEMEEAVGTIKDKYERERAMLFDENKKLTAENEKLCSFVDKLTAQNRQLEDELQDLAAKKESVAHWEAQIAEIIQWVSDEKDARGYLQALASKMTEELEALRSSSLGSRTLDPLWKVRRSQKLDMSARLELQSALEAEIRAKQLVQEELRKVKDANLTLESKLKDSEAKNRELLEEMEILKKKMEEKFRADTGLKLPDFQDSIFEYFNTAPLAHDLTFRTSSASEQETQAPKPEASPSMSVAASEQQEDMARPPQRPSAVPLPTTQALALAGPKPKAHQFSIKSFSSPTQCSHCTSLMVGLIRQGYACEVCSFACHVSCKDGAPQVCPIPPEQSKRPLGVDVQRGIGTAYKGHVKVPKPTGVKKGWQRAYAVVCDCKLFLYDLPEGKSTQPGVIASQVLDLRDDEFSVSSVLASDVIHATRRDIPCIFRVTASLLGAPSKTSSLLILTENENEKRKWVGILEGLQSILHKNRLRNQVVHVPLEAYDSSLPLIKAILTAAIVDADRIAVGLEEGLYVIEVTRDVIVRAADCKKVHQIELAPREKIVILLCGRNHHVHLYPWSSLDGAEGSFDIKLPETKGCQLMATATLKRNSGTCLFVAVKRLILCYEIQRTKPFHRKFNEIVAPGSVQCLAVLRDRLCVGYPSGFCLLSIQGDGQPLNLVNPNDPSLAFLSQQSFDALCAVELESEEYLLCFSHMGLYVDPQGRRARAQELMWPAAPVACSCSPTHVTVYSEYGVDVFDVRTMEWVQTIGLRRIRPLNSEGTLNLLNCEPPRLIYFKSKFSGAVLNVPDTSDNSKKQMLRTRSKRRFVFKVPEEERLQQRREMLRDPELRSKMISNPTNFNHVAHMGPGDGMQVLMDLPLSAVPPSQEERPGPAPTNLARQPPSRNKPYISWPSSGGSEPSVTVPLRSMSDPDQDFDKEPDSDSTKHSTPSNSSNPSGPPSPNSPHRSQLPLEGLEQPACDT
- ASSAY_PROTOCOL: radiometric filter-binding kinase assay, Kinase HotSpot
- CONDITION_CONTEXT: compound 0.5 µM; ATP 10 µM
# maps each entry to its residual activity
ENDPOINT_NAME: residual activity (%)

O=C1Cc2c([nH]c3ccc(Br)cc23)-c2ccccc2N1 ... 95.9
COc1ccc(CNC(=O)Nc2ncc([N+](=O)[O-])s2)cc1 ... 93.5
O=C1NC(=O)/C(=C\c2ccc3nccnc3c2)S1 ... 91.3
Nc1nnc2[nH]c3ccccc3nc1-2 ... 100
